experiment: yeast display, Sf9 membrane polyspecificity reagent, FACS + sequencing; frameworks hold sequencing errors
reported.metric: polyreactivity (PSR sort gate)

Known polyreactivity (PSR sort gate) results, listed for orientation:
QVQLVESGGGLVQAGGSLRLSCAASGSTFRYYAMGWYRQAPGKEWELVAVISTSGNTYYADSVKGRFTISRDNAKNTVYLQMNSLKPEDTAVYYCAARGVGGQISQEYDYWGQGTQVTVSS	low polyreactivity
QVQLVESGGGLVQAGGSLRLSCAASGRTFGANAMGWYRQAPGKERELVAAISSSDDSTYYADSVKGRFTISRDNAKKTDDLQMNSLKPEDTAVYYCAVAVGYTDSPYSYDYWGQGTQVTVSS	low polyreactivity
QVQLVESGGGLVQAGGSLRLSCAASGFISRNAMGWYRQAPGKQRELVAGITRGGSTNYADSVKGRFTISRDNAKNTVYLHMNSLKPEYTAVYYFATRRRLKGLAYDYWGQGNQVTVSS	high polyreactivity
QVQLVESGGGLDQAGGSLRLSCAASGRIFSYYTMGWYRQAPGKERELVAAITWGGGSTSYADSVKGRFTISRDNAKNTVYLQMNSLKPEDTAVYYCAESPGANRMDYWGQGTQVTVSS	low polyreactivity

For the next question, use this sequence.
**Q:** Give its polyreactivity (PSR sort gate) value. Item: QVQLVESGGGLVQAGGSLRLSCAASGFIFEYYAMGWYRQAPGKERELVAAISSGGGRTYYADSVKGRFTISRDNAKNTVYLQMNSLKPEDTAVYYCAAGFYVDYQLYEYWGQGTQVTVSS
**A:** high polyreactivity

====

assay: yeast display, Sf9 membrane polyspecificity reagent, FACS + sequencing; frameworks hold sequencing errors
reported.metric: polyreactivity (PSR sort gate)

QVQLVESGGGLVQAGGSLRLICAASGFIFTLYAMGWYRQAPGTERELVAAISKTGGRTYYADSVKGRFTISRDNAKNTVYLQMNSLKPEDTAVYYCAKDVPSTYAAAYDYWGQGTQVTVSS	high polyreactivity
QVQLVESGGGLVQAGGSLRLSCAASGRIFGYTMGWYRQAPGKERELVAAISKSGGSTYYADSVKGRFTISRDNAKNTVYLQMNSLKPEDTAVYYCAAEYGYGKRAYDSWGQGTQVTVSS	high polyreactivity
QVQLVESGGGLVQAGGSLRLSCAASGNNFLLYAMVWYRQAPGKEREFVAAITWIAGSTYYADSVKGRFTISRDNAKNTVYLQMNSLKPEDTAVYYCAADSYWYDMDYWGQGTQVTVSS	high polyreactivity
QVQLVESGGGLVQAGGSLRLSCAASGRTFVPYAMGWYRQAPGKERELVATNNRSGGTTYYADSVKGRFTISRDNAKNTVYLQMNSLKPEDTAVYYCNKSPYYTVWSTRGNQFSRFYYWGQGTQVTVSS	high polyreactivity

**Q:** Give its polyreactivity (PSR sort gate) value. Item: QFQLVESGGGLVQAGGSLRLSCAPSGFIISSNAMGGYRQAPGKERELVAAISARGGSTYYADSVKRRFTISRDNAKNTVYLQMNSLKPEDTAVYYCNTDYKTTGDYWGEGTQVTVSS
**A:** high polyreactivity

====

test: yeast display, Sf9 membrane polyspecificity reagent, FACS + sequencing; frameworks hold sequencing errors
reported.metric: polyreactivity (PSR sort gate)

Known polyreactivity (PSR sort gate) results, listed for orientation:
QVQLVESGGGLVQAGGSLRLSCAASGSTFKAYAMGWYRQAPGKEMELVAVITADGSTSTHYADSVKGRFTISRDNAKNTVSLQMNSLNPEDTAVYYCAAGSPYYSERYYYWGQGTQVTVSS	low polyreactivity
QVQLVESGGGLVQAGGSLRLSCASSGTTFQYYAMGSYRQAPGKERELVARISDSSANTYYADSVNGRFTISRDNAMNTVYLQMNSLKPEDTAVYYCAASVPYKFYCVVSVRYEYWGQGTQVTVSS	low polyreactivity
QVQLVESGGRLVQAGGSLRLSCAASGGTFGQYAMGWYRQAPGKERELVAAISRGGDSTYSADSVKGRFTISRDNAKNTVYLQMNSLKPADTAVYYCAAPGISYYSRYYYRTYDYWGQGTQVTVSS	high polyreactivity
QVQLVESGGGLVQAGGSLRLSCAASGIIFRNYAMGWYRQAAGNERAWVAAISWTGDSTYYADSVKGRFTISRDNAKNTVYLQMNSQKPEETAVYYCAAEAYYGLWMDYWGQGTQVTVSS	low polyreactivity

For the next question, use this sequence.
**Q:** Give its polyreactivity (PSR sort gate) value. Item: QVQLVESVGGLVQAGGSLRLSCAASGSIFDYNGMGRYRQAPGKERELVATITLSTARTYYADSVKGRFTISRDNAKNTVYLQMNSLKPEDTAVYYCATRYPKFRRRNYWGQGTQVTVSS
**A:** high polyreactivity

====

assay: yeast display, Sf9 membrane polyspecificity reagent, FACS + sequencing; frameworks hold sequencing errors
reported.metric: polyreactivity (PSR sort gate)

Known polyreactivity (PSR sort gate) results, listed for orientation:
QVQLVESGGGLVQAGGSLRLSCAASGRIFPGYAMGWYRQAPGKQRELVAGISNDASTNYADSVKGRFTISRDNAKNTVYLQMNSLKPEDTAVFYCAAEISYLSVPRYDYWGQGTQVTVSS	low polyreactivity
QVQLVESGGGLGQAGGSLRLSCAASGRIFGVYGMGWYRQAPGNDRELVAAITLAGRTNYADSVKGRFTISRDNAKNTVYLQMNSLKPQDTAVYYCAAEKRKLFQGVARYRYEDWGQGTQVTVSS	low polyreactivity
QVQLVESGGGLVQAGGSLRLSCAASGSTLFVNTKGWYRQAPGNERELVAAITSSGGSRYYADSVKGRFTISRDNAKNTVYLQMNSLKPQDTAVYYCAAKELGSPYDYWGQGTQVTVSS	high polyreactivity
QVQLVESGGGLVQAGGSLRLSCAASGGTFRNYPMGWYRQAPGKERELVAAITTGTITNYADSVKGRFTISRDNAKNTVYLQMNSLKPEDTAVYYCNAGAFYSDPYDYWGQGTQVTVSS	low polyreactivity

**Q:** Give its polyreactivity (PSR sort gate) value. Item: QVQLVESGGGLVQAGGSLRLSCAASGYIYGVYAMGWYRQAPGKERELVAAISYGVGSTYYADSVKGRFTISRDNAKNTVYLQMNSLKPEDTAVYYCAAEDTQVRWSPVRPLEYYCGQGTQVTVSS
**A:** low polyreactivity

**Q:** Try QVQLQESGGGLVQAGGSLRLSCAASGSIFYVYGMGWYRLAPGKVRELVAGINAGTNTNYADSVRGRFTISRDNAKNTVHLQMTSLNPEETAVYYCAADGNGYQAHEYWGQGTQVTVSS next.
**A:** high polyreactivity

**Q:** Try QVQLVESGGGLVQAGGSLRLSCAASGSTFHAYAMGWYRQAPGKEREMVAAISWRGGSTYYADSVKGRFTISRDNAKNTVYLQMNSLKPEDTAVYYCAASVQGLFGTSGLEGVDYWGQGTQVTVSS next.
**A:** high polyreactivity

**Q:** Try QVQLQESGGGLVKAGGSLRLSCAASGNISNHNDMGWYRQAPGKEREFVAGITAGGNTNYADSVKGRFTISRDNAKNTVYLQMNSLKPEDTAVYYCAAYPDYAKSYGYWGQGTQATVSS next.
**A:** low polyreactivity

**Q:** Try QVQLVESGGGLVQAGGSLRLSCAASGSIFGGNAMGWYRQAPGKETELVATITVRGGSTYYADSVKGRFRISRDNAKNSVYLQMNSLKPEDTAVYYCATEEVSRYRYGYWGQGTQVTVSS next.
**A:** low polyreactivity

**Q:** Try QVQLVESGGGLVQAGGSLRLSCAASGLISSINAMGWYRQAPGKERELVATITSGGSTYYADSVKGRFTISRDNAKNTVYLQMNSLKPEDTAVYYCAARSSVRAYYSWGHGTQVTVSS next.
**A:** high polyreactivity

**Q:** Try QVQLVESVGCLVQAGGSLRLSCAATVSIFDRYAMGWNRQPPGKESELVAAISKSGGRTYYADSVKGRFTISRDNAKNTVYLQMNSLKPEDSAVYDCAADPLLGYLSHYYWGQGTQVTVSS next.
**A:** high polyreactivity

====

assay: yeast display, Sf9 membrane polyspecificity reagent, FACS + sequencing; frameworks hold sequencing errors
reported.metric: polyreactivity (PSR sort gate)

Known polyreactivity (PSR sort gate) results, listed for orientation:
QVQLVESGGGLVQAGGSLRLSCAASGIIFYYNAMGWYRQAPGKERELVASIRWRGGSTYYADSVKGRFTISRDNAKNTVYLQMNSLKPEDTAVYYCNVVKYVYIYSYWEYYYWGQGTQVTVSS	low polyreactivity
QVQLVESGGGLVHAGGSLRLSCAASGSIIEAYAMGWYRQAPGKEMELVAVISTGGGSTSYADSVKGRFTISRDNAKNTVYLQMNSLKPEDTAVYYCAAEYRWSYFRTYYSWGQGTQVTVSS	low polyreactivity
QVQLVESGGGLVQAGGSLRLSCAASGRTFDYYAMGWYRQAPGKERELVAAISSSGGSTYYADSVKGRFTISRDNAKNTVYLQMNSLKPEDTEVYYCNAYAYRFNHIHHIYTTDGEYWGQGTQVTVSS	high polyreactivity
QVQLVESGGGLVQAGGSLRLSCAASGRILFSYAMGWYRQAPGKERELVATISSGGRTNYADSVKGRFTISRDNAKNTVYLQMNSLKPEDTAVYYCNTEYLVWYPYDYWGQGTQVTVSS	low polyreactivity
QVQLVESGGGLVQAGGSLRLSSAASGFTLGYNAMGWYRQAPGKERELVAGITWSGGSTSYADSVKGRFTISRDNAKNTVYLQMNSLKPEDTAVYYCAKLRRYSGWLPWPYAYDYWGQGTQVTVSS	high polyreactivity
QVQLVESGGGLFQAGGSLRLSCSASGSIFKRYAMVWYRQAPGKERELVARITNRSGNTYYADSVKGRFTISRDNAKNTVYLQMISLKPEDSAVYYRAATKSLGRYYMYYWGQGTQVTVSS	low polyreactivity

For the next question, use this sequence.
**Q:** Give its polyreactivity (PSR sort gate) value. Item: QVQLVESGGGLVQAGGSLRLSFAASGRTFGGYTMGWYRQAPGKERELVAAITWNGGRTYYADSVKGRFTISRDNAKNTVYLQMNILKPEDTAVYFCAVRIRLRRARLSYDYWGQGTQVTVSS
**A:** high polyreactivity

Each recorded value in this set is attributed to the nanobody polyreactivity screen of Harvey et al. (2022).
